- Tested on: HCT-8
- EXPERIMENT: Cytotoxicity against human HCT8 cells for 72 hrs by MTT assay
- Type: functional, cell-based
- ASSAY CONTEXT: HCT-8, 72 h
Quick list: IC50 per entry.

{"SMILES": "O=c1c2c[nH]c3ccccc3c-2nn1-c1nc2ccccc2s1", "TESTED SYSTEM": "HCT-8", "MEASUREMENT": "> 5 µg/mL"}
{"SMILES": "COc1cccc2c1C(=O)c1c(O)c3c(c(O)c1C2=O)C[C@@](O)(C(=O)CO)C[C@@H]3O[C@H]1C[C@H](N)[C@H](O)[C@H](C)O1", "TESTED SYSTEM": "HCT-8", "MEASUREMENT": "0.06 µg/mL"}
{"SMILES": "O=c1c2c[nH]c3ccc(Cl)cc3c-2nn1-c1nc2ccccc2s1", "TESTED SYSTEM": "HCT-8", "MEASUREMENT": "> 5 µg/mL"}
{"SMILES": "O=c1c2c[nH]c3ccc(F)cc3c-2nn1-c1nc2ccccc2s1", "TESTED SYSTEM": "HCT-8", "MEASUREMENT": "> 5 µg/mL"}
{"SMILES": "O=c1c2c[nH]c3ccc(Br)cc3c-2nn1-c1nc2ccccc2s1", "TESTED SYSTEM": "HCT-8", "MEASUREMENT": "> 5 µg/mL"}

Q: Please report the recorded IC50 for Cc1ccc2[nH]cc3c(=O)n(-c4nc5ccccc5s4)nc-3c2c1 .
Ans: 4.1 µg/mL

Q: Quick check: IC50 of O=c1c2c[nH]c3ccc([N+](=O)[O-])cc3c-2nn1-c1nc2ccccc2s1 ?
Ans: > 5 µg/mL

Q: Suppose we examine the molecule COc1ccc2[nH]cc3c(=O)n(-c4nc5ccccc5s4)nc-3c2c1 ; what IC50 value has been reported?
Ans: > 5 µg/mL
